# assay.method.text: IRF3 reporter activation in THP-1 macrophages, cell-based, PMA-stimulated THP-1, luminescence (AID 1053176)
# test.parameters: PMA-differentiated THP-1, IRF3 reporter luminescence; stronger effect = higher value
readout.label: fraction signal
Answer with the value's number alone.

Task: Need fraction signal of COC(=O)Nc1nc2ccc(Oc3ccc(NC(=O)Nc4cccc(Cl)c4)cc3)cc2[nH]1 , thanks.
Output: -0.0045

Task: Need fraction signal of COc1cccc(C2=C(c3cn(C)c4cc(F)ccc34)C(=O)NC2=O)c1 , thanks.
Output: 0.0095

Task: Need fraction signal of COc1cc(Nc2ncc3c(C)nc(-c4cccc(C(F)(F)F)c4)n3n2)cc(OC)c1OC , thanks.
Output: 0.005

Task: Need fraction signal of CC1=C(C(=O)Nc2ccc3[nH]ncc3c2)C(c2ccc3ccccc3c2)CC(=O)N1 (stereo not drawn) , thanks.
Output: -0.014

Task: Need fraction signal of N#Cc1c(NC(=O)c2cccc3ccccc23)sc2c1CCCN2C(=O)C1CC1 , thanks.
Output: 0.002

----------
# assay.method.text: differential killing of epithelial or mesenchymal cells, primary screen, imaging, PC-3E GFP, TEM4-18 mCherry, co-culture (AID 1345086);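 further: cells exposed to compound for 72 h before imaging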
# test.parameters: imaging cell counts, measured here: mesenchymal TEM4-18 mCherry cell survival, at 1 µM
Reported normalised cell number values for a set of molecules
Answer with the value's number alone.

[[record]]
molecule = "NC(=O)N1c2ccccc2CC(=O)c2ccccc21"
readout_value = 1.09

[[record]]
molecule = "N[C@@H](Cc1cc(I)c(Oc2cc(I)c(O)c(I)c2)c(I)c1)C(=O)O"
readout_value = 1.02


Task: Need normalised cell number of O=C(O)c1cccnc1 , thanks.
Output: 1.11

Task: Need normalised cell number of CC(COc1ccccc1)N(CCCl)Cc1ccccc1 (configuration not stated) , thanks.
Output: 1.43

Task: Need normalised cell number of Clc1ccc2c(c1)C(N1CCNCC1)=Nc1ccccc1O2 , thanks.
Output: 0.27

Task: Need normalised cell number of C[C@@H]1CC(=O)NN=C1c1ccc(NN=C(C#N)C#N)cc1 , thanks.
Output: 1.21

Task: Need normalised cell number of OCCN1CCN(CCCN2c3ccccc3Sc3ccc(C(F)(F)F)cc32)CC1 , thanks.
Output: 0.95

----------
# target.system: ATP-dependent translocase ABCB1 (Homo sapiens)
# assay.method.text: MDR1 (ABCB1) efflux transporter inhibition, cell-based (AID 377)
# test.parameters: MDR1-expressing cells, fluorescent substrate accumulation slope; concentration not given here
Records with an inconclusive call do not appear. Active and inactive are the calls of the source. No stated cut-off is given here; in the data, active means fluorescence slope change above about 50%; inconclusive means mostly about 31% to 49%; inactive means weaker than that.
Write down the outcome that applies. Available outcomes: active, inactive

Would you please look over these solved cases?
[[record]]
compound = "NC(=O)c1cnccn1"
label = "inactive"

[[record]]
compound = "CC(C)[N+](C)(CCOC(=O)C1c2ccccc2Oc2ccccc21)C(C)C"
label = "active"

[[record]]
compound = "c1ccc([C@H]2CN3CCSC3=N2)cc1"
label = "active"

[[record]]
compound = "CC(C)NCC(O)c1cc(O)cc(O)c1 (stereo not given)"
label = "inactive"

[[record]]
compound = "c1ccc2[nH]c(-c3cscn3)nc2c1"
label = "inactive"


Task: What outcome does the record of this test show for C[C@H]1C[C@@H]2[C@H]([C@@H](O)C[C@@]3(C)[C@H]2CC[C@]3(O)C(=O)CO)[C@@]2(C)C=CC(=O)C=C12 ?
Output: active

Task: What outcome does the record of this test show for CCc1cccc2c3c([nH]c12)C(CC)(CC(=O)O)OCC3 (stereo not given) ?
Output: active

Task: What outcome does the record of this test show for COc1ccccc1OCC(O)COC(N)=O (stereo not given) ?
Output: inactive

Task: What outcome does the record of this test show for COc1ccc(OC)c(C(O)CNC(=O)CN)c1 (stereo not given) ?
Output: active

Task: What outcome does the record of this test show for C[C@]12CCC(=O)C=C1CC[C@@H]1[C@@H]2C(=O)C[C@@]2(C)[C@H]1CC[C@]2(O)C(=O)CO ?
Output: inactive
